- assay notes: Ex vivo biodistribution of [18F]14 and [18F]15
- Type: in vivo, Rj:NMRI-Foxn1^nu/nu mice
- condition set: Rj:NMRI-Foxn1^nu/nu, mouse, tumor (AR42J xenograft) / blood, iv, 0.2 nmol, total radioactivity; 60 min post injection, baseline; read-out: T/blood ratio
For each entry below, report its tissue to tissue ratio at 1 h value.
Give bare numbers.

| compound | measured number |
| --- | --- |
| C[C@@H](O)[C@@H]1NC(=O)[C@H](CCCCN)NC(=O)[C@@H](Cc2c[nH]c3ccccc23)NC(=O)[C@H](Cc2ccc(O)cc2)NC(=O)[C@@H](NC(=O)[C@@H](Cc2ccccc2)NC(=O)CCOCCOCCOCCOCCON=Cc2ccc(C(=O)NCCOCCOCCOCCNC(=O)OC3CCCc4cnnc(-c5ccc(CC(=O)NCC[N+](C)(C)C[B-](F)(F)F)cc5)c4CC3)cc2)CSSC[C@@H](C(=O)N[C@H](CO)[C@@H](C)O)NC1=O (some centres unmarked) [[^18F]15] | 0.5 |

Here is the next item to consider.
So what does the record say about tissue to tissue ratio at 1 h for C[C@@H](O)[C@@H]1NC(=O)[C@H](CCCCN)NC(=O)[C@@H](Cc2c[nH]c3ccccc23)NC(=O)[C@H](Cc2ccc(O)cc2)NC(=O)[C@@H](NC(=O)[C@@H](Cc2ccccc2)NC(=O)CCOCCOCCOCCOCCON=Cc2ccc(CNC(=O)OC3CCCc4cnnc(-c5ccc(CC(=O)NCC[N+](C)(C)C[B-](F)(F)F)cc5)c4CC3)cc2)CSSC[C@@H](C(=O)N[C@H](CO)[C@@H](C)O)NC1=O (some centres unmarked) [[^18F]14] ?
0.3

====

Answer each item with its documented tissue uptake at 1 h.
- assay notes: Ex vivo biodistribution of [18F]14 and [18F]15
- Type: in vivo, Rj:NMRI-Foxn1^nu/nu mice
- condition set: mouse, iv, 0.2 nmol, 60 min post injection, i.v., blocked with octreotide; read-out: urine
Give bare numbers, in %ID/g.

// batch mode: one tissue uptake at 1 h value per listed entry
1. C[C@@H](O)[C@@H]1NC(=O)[C@H](CCCCN)NC(=O)[C@@H](Cc2c[nH]c3ccccc23)NC(=O)[C@H](Cc2ccc(O)cc2)NC(=O)[C@@H](NC(=O)[C@@H](Cc2ccccc2)NC(=O)CCOCCOCCOCCOCCON=Cc2ccc(CNC(=O)OC3CCCc4cnnc(-c5ccc(CC(=O)NCC[N+](C)(C)C[B-](F)(F)F)cc5)c4CC3)cc2)CSSC[C@@H](C(=O)N[C@H](CO)[C@@H](C)O)NC1=O (some centres unmarked) [[^18F]14]
2. C[C@@H](O)[C@@H]1NC(=O)[C@H](CCCCN)NC(=O)[C@@H](Cc2c[nH]c3ccccc23)NC(=O)[C@H](Cc2ccc(O)cc2)NC(=O)[C@@H](NC(=O)[C@@H](Cc2ccccc2)NC(=O)CCOCCOCCOCCOCCON=Cc2ccc(C(=O)NCCOCCOCCOCCNC(=O)OC3CCCc4cnnc(-c5ccc(CC(=O)NCC[N+](C)(C)C[B-](F)(F)F)cc5)c4CC3)cc2)CSSC[C@@H](C(=O)N[C@H](CO)[C@@H](C)O)NC1=O (some centres unmarked) [[^18F]15]

[41.9, 303]

====

Answer each item with its documented tissue uptake at 1 h.
- assay notes: Ex vivo biodistribution of [18F]14 and [18F]15
- Format: in vivo, Rj:NMRI-Foxn1^nu/nu mice
- condition set: mouse, iv, 0.2 nmol, 60 min post injection, i.v., blocked with octreotide; read-out: skin
Answers are plain numbers, in %ID/g.

| compound | tissue uptake at 1 h, %ID/g |
| --- | --- |
| C[C@@H](O)[C@@H]1NC(=O)[C@H](CCCCN)NC(=O)[C@@H](Cc2c[nH]c3ccccc23)NC(=O)[C@H](Cc2ccc(O)cc2)NC(=O)[C@@H](NC(=O)[C@@H](Cc2ccccc2)NC(=O)CCOCCOCCOCCOCCON=Cc2ccc(C(=O)NCCOCCOCCOCCNC(=O)OC3CCCc4cnnc(-c5ccc(CC(=O)NCC[N+](C)(C)C[B-](F)(F)F)cc5)c4CC3)cc2)CSSC[C@@H](C(=O)N[C@H](CO)[C@@H](C)O)NC1=O (some centres unmarked) [[^18F]15] | 1.6 |

Please examine the following record next.
Please report the recorded tissue uptake at 1 h for C[C@@H](O)[C@@H]1NC(=O)[C@H](CCCCN)NC(=O)[C@@H](Cc2c[nH]c3ccccc23)NC(=O)[C@H](Cc2ccc(O)cc2)NC(=O)[C@@H](NC(=O)[C@@H](Cc2ccccc2)NC(=O)CCOCCOCCOCCOCCON=Cc2ccc(CNC(=O)OC3CCCc4cnnc(-c5ccc(CC(=O)NCC[N+](C)(C)C[B-](F)(F)F)cc5)c4CC3)cc2)CSSC[C@@H](C(=O)N[C@H](CO)[C@@H](C)O)NC1=O (some centres unmarked) [[^18F]14] .
1.6
